Assay: in vitro
Settings: human, Caco-2, CACO permeability PEBA, basolateral to apical
*1 amine or outer side, *2 acyl side, *3 side chain or, on linkers, in order; H or OH if unused. Where a SMILES comes first, the peptide text is derived from it. [ ]: non-standard residue; d: D form. ξ: configuration not given here. X3 = C#CCOc1ccc([C@@H](OC)[C@H](N[*:1])C(=O)[*:2])cc1; X5 = C=CCn1cc(C[C@@H](C(=O)[*:2])N(C)[*:1])c2ccccc21; X1 = C#CCn1cc(C[C@H](N[*:1])C(=O)[*:2])c2ccccc21; X7 = C=CCn1cc(C[C@H](N[*:1])C(=O)[*:2])c2ccccc21; NMeLeu(5-OH,4R) = CN[C@@H](C[C@@H](C)CO)C(=O)O; Phe(βR-OMe) = CO[C@H](c1ccccc1)[C@H](N)C(=O)O; ξNMeTrp(1-Me) = CNC(Cc1cn(C)c2ccccc12)C(=O)O; Trp(1-Me) = Cn1cc(C[C@H](N)C(=O)O)c2ccccc21; X8 = CC(CO)C[C@@H](C(=O)[*:2])N(C)[*:1]; NMeL = CN[C@@H](CC(C)C)C(=O)O; Pra = C#CC[C@H](N)C(=O)O; ξV = CC(C)C(N)C(=O)O
# Papp B→A per entry

Example cases with answers are listed next.
[[record]]
molecule = "C#CC[C@@H]1NC(=O)[C@H](CC(C)C)N(C)C(=O)[C@H](C(C)C)NC(=O)[C@H]([C@H](OC)c2ccccc2)NC(=O)[C@H](C)NC(=O)[C@H](C[C@@H](C)CO)N(C)C(=O)[C@H](Cc2cn(C)c3ccccc23)NC1=O [Compound 10] (cyclo(A[Phe(βR-OMe)]V[NMeL][Pra][Trp(1-Me)][NMeLeu(5-OH,4R)]))"
measured_endpoint = "Papp B→A"
observed_value = "19 ×10⁻⁶ cm/s"

[[record]]
molecule = "CCCCCn1cc(C[C@@H]2NC(=O)[C@H](CC(C)C)N(C)C(=O)[C@H](C(C)C)NC(=O)[C@H]([C@H](OC)c3ccccc3)NC(=O)[C@H](C)NC(=O)[C@H](C[C@@H](C)CO)N(C)C(=O)[C@H](Cc3cn(C)c4ccccc34)NC2=O)nn1"
measured_endpoint = "Papp B→A"
observed_value = "13 ×10⁻⁶ cm/s"

[[record]]
molecule = "CO[C@H](c1ccccc1)[C@@H]1NC(=O)[C@H](C)NC(=O)[C@H](C[C@@H](C)CO)N(C)C(=O)[C@H](Cc2cn(C)c3ccccc23)N(C)C(=O)[C@H](Cc2cn(CCCCCn3cc(C[C@@H]4NC(=O)[C@H](CC(C)C)N(C)C(=O)[C@H](C(C)C)NC(=O)[C@H]([C@H](OC)c5ccccc5)NC(=O)[C@H](C)NC(=O)[C@H](C[C@@H](C)CO)N(C)C(=O)[C@H](Cc5cn(C)c6ccccc56)N(C)C4=O)nn3)nn2)NC(=O)[C@H](CC(C)C)N(C)C(=O)[C@H](C(C)C)NC1=O"
measured_endpoint = "Papp B→A"
observed_value = "< 0.051 ×10⁻⁶ cm/s"

[[record]]
molecule = "CO[C@H](c1ccccc1)[C@@H]1NC(=O)[C@H](C)NC(=O)[C@H](C[C@@H](C)CO)N(C)C(=O)[C@H](Cc2cn(C)c3ccccc23)N(C)C(=O)[C@H](Cc2cn(CCOCCOCCn3cc(C[C@@H]4NC(=O)[C@H](CC(C)C)N(C)C(=O)[C@H](C(C)C)NC(=O)[C@H]([C@H](OC)c5ccccc5)NC(=O)[C@H](C)NC(=O)[C@H](C[C@@H](C)CO)N(C)C(=O)[C@H](Cc5cn(C)c6ccccc56)N(C)C4=O)nn3)nn2)NC(=O)[C@H](CC(C)C)N(C)C(=O)[C@H](C(C)C)NC1=O"
measured_endpoint = "Papp B→A"
observed_value = "< 0.29 ×10⁻⁶ cm/s"

[[record]]
molecule = "C=CCn1cc(C[C@H]2C(=O)N(C)[C@@H](C[C@@H](C)CO)C(=O)N[C@@H](C)C(=O)N[C@@H]([C@H](OC)c3ccccc3)C(=O)N[C@@H](C(C)C)C(=O)N(C)[C@@H](CC(C)C)C(=O)N[C@@H](C(C)C)C(=O)N2C)c2ccccc21 [SI-60] (cyclo(A[Phe(βR-OMe)]V[NMeL]V[X5][NMeLeu(5-OH,4R)]))"
measured_endpoint = "Papp B→A"
observed_value = "49 ×10⁻⁶ cm/s"

[[record]]
molecule = "C=CCn1cc(C[C@@H]2NC(=O)[C@H](C(C)C)NC(=O)[C@H](CC(C)C)N(C)C(=O)[C@H](C(C)C)NC(=O)[C@H]([C@H](OC)c3ccccc3)NC(=O)[C@H](C)NC(=O)[C@H](C[C@@H](C)CO)N(C)C2=O)c2ccccc21 [Compound 13] (cyclo(A[Phe(βR-OMe)]V[NMeL]V[X7][NMeLeu(5-OH,4R)]))"
measured_endpoint = "Papp B→A"
observed_value = "33 ×10⁻⁶ cm/s"

[[record]]
molecule = "C#CCOc1ccc([C@@H](OC)[C@@H]2NC(=O)[C@@H](C)NC(=O)[C@H](CC(C)CO)N(C)C(=O)C(Cc3cn(C)c4ccccc34)N(C)C(=O)C(C(C)C)NC(=O)[C@H](CC(C)C)N(C)C(=O)[C@@H](C(C)C)NC2=O)cc1 (some centres unmarked) [SI-64] (cyclo([NMeL][ξV][ξNMeTrp(1-Me)][X8][dA][X3][dV]))"
measured_endpoint = "Papp B→A"
observed_value = "44 ×10⁻⁶ cm/s"


// moving on: another record for Papp B→A
Short answer for C#CCn1cc(C[C@@H]2NC(=O)[C@H](C(C)C)NC(=O)[C@H](CC(C)C)N(C)C(=O)[C@H](C(C)C)NC(=O)[C@H](Cc3ccccc3)NC(=O)[C@H](C)NC(=O)[C@H](C[C@@H](C)CO)N(C)C2=O)c2ccccc21 [SI-72] (cyclo(AFV[NMeL]V[X1][NMeLeu(5-OH,4R)])) : Papp B→A was 15 ×10⁻⁶ cm/s

---

Type: in vitro ADME, Human
*1 amine or outer side, *2 acyl side, *3 side chain or, on linkers, in order; H or OH if unused. Where a SMILES comes first, the peptide text is derived from it. [ ]: non-standard residue; d: D form. X9 = C=CC(C)(C)n1cc(C[C@@H](C(=O)[*:2])N(C)[*:1])c2ccccc21; Ala(3R-Me,3-isobutenyl) = CC(C)=C[C@@H](C)[C@H](N)C(=O)O; NMeLeu(5-OH,4R) = CN[C@@H](C[C@@H](C)CO)C(=O)O; Phe(βR-OMe) = CO[C@H](c1ccccc1)[C@H](N)C(=O)O; NMeL = CN[C@@H](CC(C)C)C(=O)O
measured_endpoint: Hepatocyte Stability Human QH (%)
Provide the reading as a plain figure in %.

Example cases with answers are listed next.
[[record]]
compound = "C=CC(C)(C)n1cc(C[C@H]2C(=O)N(C)[C@@H](C[C@@H](C)CO)C(=O)N[C@@H](C)C(=O)N[C@@H]([C@H](OC)c3ccccc3)C(=O)N[C@@H](C(C)C)C(=O)N(C)[C@@H](CC(C)C)C(=O)N[C@@H]([C@H](C)C=C(C)C)C(=O)N2C)c2ccccc21 [Compound 23] (cyclo(A[Phe(βR-OMe)]V[NMeL][Ala(3R-Me,3-isobutenyl)][X9][NMeLeu(5-OH,4R)]))"
readout_units = "%"
observed_value = 12.924

[[record]]
compound = "COC(c1ccc(OCc2cn(CCOCCOCCOCCOCCn3cc(COc4ccc(C(OC)C5NC(=O)C(C)NC(=O)C(CC(C)CO)N(C)C(=O)C(Cc6cn(C)c7ccccc67)N(C)C(=O)C(C(C)C)NC(=O)C(CC(C)C)N(C)C(=O)C(C(C)C)NC5=O)cc4)nn3)nn2)cc1)C1NC(=O)C(C)NC(=O)C(CC(C)CO)N(C)C(=O)C(Cc2cn(C)c3ccccc23)N(C)C(=O)C(C(C)C)NC(=O)C(CC(C)C)N(C)C(=O)C(C(C)C)NC1=O (stereo not shown)"
readout_units = "%"
observed_value = 12.386

[[record]]
compound = "COC(c1ccc(OCc2cn(CCOCCOCCOCCOCCn3cc(COc4ccc(C(OC)C5NC(=O)C(C)NC(=O)C(CC(C)CO)N(C)C(=O)C(Cc6cn(C)c7ccccc67)NC(=O)C(C(C)C)NC(=O)C(CC(C)C)N(C)C(=O)C(C(C)C)NC5=O)cc4)nn3)nn2)cc1)C1NC(=O)C(C)NC(=O)C(CC(C)CO)N(C)C(=O)C(Cc2cn(C)c3ccccc23)NC(=O)C(C(C)C)NC(=O)C(CC(C)C)N(C)C(=O)C(C(C)C)NC1=O (stereo not shown)"
readout_units = "%"
observed_value = 12.386


// moving on: another record for Hepatocyte Stability Human QH
Short answer for `CO[C@H](c1ccccc1)[C@@H]1NC(=O)[C@H](C)NC(=O)[C@H](C[C@@H](C)CO)N(C)C(=O)[C@H](Cc2cn(CCCCn3cc(C[C@H]4C(=O)N(C)[C@@H](C[C@@H](C)CO)C(=O)N[C@@H](C)C(=O)N[C@@H]([C@H](OC)c5ccccc5)C(=O)N[C@@H](C(C)C)C(=O)N(C)[C@@H](CC(C)C)C(=O)N[C@@H](C(C)C)C(=O)N4C)c4ccccc43)c3ccccc23)N(C)C(=O)[C@H](C(C)C)NC(=O)[C@H](CC(C)C)N(C)C(=O)[C@H](C(C)C)NC1=O` : Hepatocyte Stability Human QH was 12.386
